In this section, each of the compounds is paired with its reported MBC.
# Tested on: Pseudomonas aeruginosa CNCM A22
# protocol: Minimum bactericidal concentration, 30 min contact, strain 3
# Type: cell-based
# condition: CNCMA22, 0.5 h; Pseudomonas aeruginosa CNCM A22; contact time 30 minutes; solubilizing agent given per product; read-out: MBC, strain 3
Your answer is read as µg/mL, so omit the unit and give the number.

Example entries begin here.
OC(COc1ccc(Cl)cc1Cl)CN1CCC(Cc2ccccc2)CC1 (racemic); 50
OC(COc1cccc2ccccc12)CN1CCC(Cc2ccccc2)CC1 (racemic); 50
CC(C)(C)c1ccc(OCC(O)CN2CCC(Cc3ccccc3)CC2)cc1 (racemic); 50
Cl.OC(CSc1ccc(Br)cc1)CN1CCC(Cc2ccccc2)CC1 (stereo not drawn); 50
Cl.OC(COc1ccc(Cl)cc1Cc1ccccc1)CN1CCC(Cc2ccccc2)CC1 (stereo not drawn); 10

Given the entry OC(COc1cc(Cl)c(Cl)cc1Cl)CN1CCC(Cc2ccccc2)CC1 (racemic) , what MBC was observed with Pseudomonas aeruginosa CNCM A22?
50

Given the entry OC(COc1ccc(Cl)cc1Cc1ccccc1)CN1CCC(Cc2ccccc2)CC1 (racemic) , what MBC was observed with Pseudomonas aeruginosa CNCM A22?
10
